# system: HLA-A*29:02
# method-summary: IEDB peptide-MHC binding, purified MHC/direct/fluorescence; filed as Kd, often an IC50 or EC50 that approximates it; bounds were set here for any values at or beyond the usual limits of such assays
# assay-conditions: source organism: Entamoeba histolytica HM-1:IMSS
readout: Kd (nM)
Give bare numbers, in nM.

Ask | So what's the measured Kd for this one? "ETFNTPAMY"
Reply | 10

----------
# system: HLA-B*07:02
# method-summary: IEDB peptide-MHC binding, purified MHC/direct/fluorescence; filed as Kd, often an IC50 or EC50 that approximates it; bounds were set here for any values at or beyond the usual limits of such assays
# assay-conditions: source organism: West Nile virus
pKd: −log10 of the molar value.
Kindly state pKd for each of the entries shown.

GMSWITQGL :: ≤ 4.70

Ask | So what's the measured pKd for this one? "GRGPIRFVL"
Reply | ≤ 4.70

----------
# system: HLA-A*30:01
# method-summary: IEDB peptide-MHC binding, purified MHC/competitive/radioactivity; filed as Kd, often an IC50 or EC50 that approximates it; bounds were set here for any values at or beyond the usual limits of such assays
# assay-conditions: source organism: Dengue virus 1 Brazil/97-11/1997
Kindly state Kd for each of the entries shown.
Numbers only, in nM.

AIKVLRGFK :: 501
MRSRWSRKML :: 175

Read the next record carefully.
Ask | So what's the measured Kd for this one? "KVRKDIPQW"
Reply | 254

----------
# system: HLA-B*58:01
# method-summary: IEDB peptide-MHC binding, purified MHC/competitive/fluorescence; filed as Kd, often an IC50 or EC50 that approximates it; bounds were set here for any values at or beyond the usual limits of such assays
# assay-conditions: source organism: Salmonella enterica subsp. enterica serovar Typhi
readout: pKd
Answers are plain numbers, as −log10 of the molar value.

Ask | So what's the measured pKd for this one? "MTMLTRWKI"
Reply | 8.30

----------
Kindly state pKd for each of the entries shown.
# system: HLA-A*31:01
# method-summary: IEDB peptide-MHC binding, purified MHC/competitive/radioactivity; filed as Kd, often an IC50 or EC50 that approximates it; bounds were set here for any values at or beyond the usual limits of such assays
# assay-conditions: source organism: SARS coronavirus Tor2
One number for each entry, as −log10 of the molar value.

Consider the reported pKd for these sequences:
AQGLVASIK :: 5.00
TLQGPPGTGK :: 5.48
VFAYVGCYNK :: 6.74
YVKSPKFSK :: 5.63
KFVFPLNSK :: 7.13

Please give pKd for each item listed below.
1. STCFKLMLK
2. KTVQFCDAMR
3. SAQCFKMFYK
4. IQFMMSRRR
5. GANYLGKPK
6. AIDAYPLTK
7. KVNSTLEQY
8. KSKSFNHVLK

Reply |
7.58
8.06
7.57
8.36
5.83
5.05
5.59
8.18

Please give pKd for each item listed below.
1. ATSRTLSYYK
2. LVLLILMTAR

Reply |
1. 7.83
2. 6.04

Please give pKd for each item listed below.
1. RVYANLGER
2. AVLDMCAALK
3. LIGANYLGK
4. AAAYFVGYLK

Reply |
[8.20, 7.09, 5.05, 6.55]

----------
# system: HLA-A*03:01
# method-summary: IEDB peptide-MHC binding, purified MHC/direct/fluorescence; filed as Kd, often an IC50 or EC50 that approximates it; bounds were set here for any values at or beyond the usual limits of such assays
# assay-conditions: source organism: Homo sapiens
readout: Kd (µM)
One number for each entry, in µM.

Ask | So what's the measured Kd for this one? "ETFNTPAMY"
Reply | 10.5
